# method-notes: yeast growth modulation, basal conditions, primary screen, YJM789 clinical isolate, OD600, 24 h (AID 1089);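 further: growth of clinical yeast isolate S. cerevisiae YJM 789 seeded 1000 cells per well; test concentration not given here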
# experimental-setup: S. cerevisiae YJM789 growth, called active from +8 up or from −8 down
Active and inactive are the calls of the source.
Please state which outcome applies, choosing from active, inactive

Take a look at these entries with their results.
| molecule | assigned-label |
| --- | --- |
| C=CCC(OC(C)=O)[C@@H]1[C@@H](N(Cc2ccc(-c3cccc(C(F)(F)F)c3)o2)C(=O)c2ccc(C)cc2)c2cc(OCCCO)ccc2N1C(=O)Cc1ccc2ccccc2c1 (stereo partly specified) | inactive |
| O=C(CS)NCCCCCCNC(=O)[C@@H]1C[C@@H]2C(=O)N[C@@H](Cc3ccccc3)C(=O)N2[C@@H]1c1cccc(OCCO)c1 | inactive |
| C=C[C@H](C)[C@@H](OC(=O)Nc1ccc(OC)cc1)c1ccc(O)c2ccccc12 | active |

Input line: Record lookup: outcome of this test for CC(C)c1ccc(NN2C(C(O)c3ccc(B(O)O)cc3)C=CC3C(=O)N(c4ccccc4)C(=O)C32)cc1 (stereo unspecified) ?
Output line: inactive

Input line: // return assay outcome for COCCOC(=O)N1C(=O)[C@@]2(c3cc(C#CCNC(N)=O)ccc31)[C@H](C(=O)N1CCN(c3ncccn3)CC1)[C@H]1C(=O)O[C@H](c3ccccc3)[C@H](c3ccccc3)N1[C@@H]2c1ccc(OCCO)cc1
Output line: inactive

Input line: Outcome logged for C=CCC(OC(C)=O)[C@@H]1[C@@H](N(Cc2cc3ccccc3o2)C(=O)c2cccc3ccccc23)c2cc(OCCCO)ccc2N1C(=O)c1ccc(-c2ccccc2)cc1 (stereo partly specified) in this assay:
Output line: inactive

* * *

# study-system: Carbonic anhydrase 2 (Homo sapiens)
# method-notes: CAII small-molecule binders, profiling panel, biochemical, small-molecule microarray, Alexa647-labelled CAII (AID 1122)
# experimental-setup: CAII-A647 binding fluorescence, higher = more signal
reported-property: composite z-score

| chemical-string | composite z-score |
| --- | --- |
| CC(C)C(=C=CC[C@@H](O)c1ccc(OCCO)cc1)C[C@@H](O)c1ccccn1 | 0.368 |
| C=C(CCCC)/C(=C/C[C@H](OC(C)=O)c1ccccc1OCCO)c1cc(C(=O)OC)ccc1OC | 0.767 |

Attention now turns to another entry.
Input line: Checklist item: composite z-score tested on Carbonic anhydrase 2 (Homo sapiens), entry C=CCOC(=O)[C@@H]1[C@H]2C(=O)O[C@H](c3ccccc3)[C@H](c3ccccc3)N2[C@H](c2ccc(OCCOC(=O)[C@@H]3C[C@@H]4C(=O)NCC(=O)N4[C@@H]3c3ccc(O)cc3)cc2)[C@@]12C(=O)Nc1ccc(I)cc12 , value?
Output line: 0.617

* * *

# System: glycogen synthase kinase-3 (GSK3A per assay name; protocol says GSK3B)
# method-notes: GSK3 binders on small-molecule microarrays, primary screen, biochemical, small-molecule microarray, 635 nm fluorescence, GSK3A (AID 1103); further: the record names both GSK3A and GSK3B
# experimental-setup: small-molecule microarray binding, fluorescence 635 nm; higher = more signal
reported-property: composite z-score
Numbers only.

| compound | assay-result |
| --- | --- |
| C#C[C@H](O[Si](C#Cc1ccc(Oc2ccccc2)cc1)(C(C)C)C(C)C)c1ccccc1 | 0.639 |
| CCc1cccc(NC(=O)O[C@H]2[C@H](OC(=O)Nc3ccccc3-c3ccccc3)[C@@H](OC(=O)Nc3ccccc3-c3ccccc3)[C@@H](OC)O[C@@H]2CO)c1 | 0.954 |
| CN(C)C(=O)[C@@]1(CCS(=O)(=O)c2ccccc2)COC(c2ccc(OCCCO)cc2)=N1 | 0.476 |

// input: 3 compounds below; output: composite z-score for each
1. CC(C)OC(=O)C=C1C[C@@H](c2ccccn2)O[C@@H](c2ccccn2)O1
2. C=C(C)[C@@H]1CC=C(C(O)C2C=CC3C(=O)N(c4ccccc4)C(=O)C3N2Nc2ccccc2)CC1 (stereo not given in full)
3. C=CCN1C(=O)[C@]2(O[C@H](CCn3cc([C@H](O)c4ccccc4)nn3)[C@@H]([Si](C)(C)c3ccc(OC)cc3)[C@@H]2C)c2cc(N3CCC3=O)ccc21

Output line:
1. 0.201
2. 1.32
3. 0.169

State recorded composite z-score for all listed compounds.
1. CC(C)NC(=O)[C@@]1(C)c2ccccc2C(=O)N(Cc2cc(C(F)(F)F)cc(C(F)(F)F)c2)[C@H]1c1ccc(CO)cc1
2. C=CCC(OC(C)=O)[C@@H]1[C@@H](N(Cc2ccc(-c3cccc(C(F)(F)F)c3)o2)C(=O)c2ccc(C)cc2)c2cc(OCCCO)ccc2N1C(=O)Cc1ccc2ccccc2c1 (stereo not given in full)
3. COc1ccc([Si](C)(C)[C@H]2[C@H](CCO)O[C@@]3(C(=O)N(Cc4ccc(N(C=O)c5ccccc5)cc4)c4ccccc43)[C@@H]2C)cc1
4. Cc1ccc(S[C@]2(C(=O)O)CC(=O)N(C(C)C)[C@@H]2c2ccc(CO)cc2I)cc1
5. CCC(CC)C(O)C1C=CC2C(=O)NC(=O)C2N1Nc1ccc(Cl)cc1Cl (stereo not given)

Output line:
1: -0.589; 2: -1.46; 3: -1.09; 4: 0.511; 5: 0.451

Each compound below has a reported value. Please supply its composite z-score.
1. O=C(OCc1ccccc1)C1=CCC2c3[nH]c4ccccc4c3C(=O)C1N2S(=O)(=O)c1ccccc1[N+](=O)[O-] (stereo not given)
2. COC(=O)[C@@]1(Cc2ccccc2)[C@H]2c3cc(C(=O)N(C)C)n(Cc4ccsc4Br)c3C[C@H]2CN1C(=O)c1ccccc1
3. COc1cc2c(cc1O)C(C1CC1)N(Cc1sc3ccccc3c1Cl)CC2 (stereo not given)
4. CCOC(=O)C[C@H]1[C@H](OC(=O)c2ccc(C(=O)c3ccccc3)cc2)[C@@H](NC(=O)c2ccccc2)c2cc(OCCCO)ccc2N1C(=O)Cc1ccc(OC)cc1

Output line:
[1.32, 0.439, 0.135, 0.0916]

These entries and their values trace back to PubChem BioAssay.
